Assay: protease stability score; higher = more stable; yeast display proteolysis, trypsin and chymotrypsin
Below is a list of entries, each paired with its recorded protease stability score value.
Note: the reply should be a number with no unit written.

Recorded protease stability score, per entry:
Monomer sequence: SEETEYLRLAIELILNETRTGDEHTFMENADPDAKLNFNGVHLHGMEEVTRRMHELWEELRIRHFELHDVSHVDGRLYVHIRLDVDVNGQKRTFRSEIVSEKINGKWYYKYMTIV
Result type: protease stability score
Measured: 1.27
//
Monomer sequence: DELTRDFEEATELLIRILLTGDEDIFREMADPNVRLHYGDKTFIGREEFVKWLHQWRIEDIKIDHVDLQGDYAIVHGRIRTVIGDKEHKVDTKWIIRKYNGKWDIREVHIR
Result type: protease stability score
Measured: 2.07
//
Monomer sequence: TEEDELLDKLAEIFSKVLKTGDFDELLSLFDPHTRLEVRQGDKEFHYHGREEVVRFWRHVRNRIDHSQLELHDVKSVNGVANSDSEVILRVNGKEIRIHHILLFVVINGRSKMVVIEFR
Result type: protease stability score
Measured: 1.68
//
Monomer sequence: NEDEEKAKRFVKTYVHSLVTGDWKLWSEMADPNMILIYGDKTFIGREHFEEFFRRHIEELRFDSFHVDHVEIQGDKAELESRVSVIINGVERELETNMFLHKVDGRWLLTKFEVH
Result type: protease stability score
Measured: 2.08
//
Monomer sequence: SEEERVAKHVSHNLFESLKTGNEEEIEKFFDPNVKVQVGEFEHHGREAVLFWFHEFGIKHIHFHEERVQGDKMHSHLNLIVNGRHISHHIHFHKINGRWHITHQRFH
Result type: protease stability score
Measured: 0.828

Now for a further sequence.
[in] Reported protease stability score for DEDTEKHKELLEMLVVAYLTGDFRHWWDLADPHVKLDQGDKHLHGREDMVEWIRRFIKKFKNVQVKIRHIHHQGNKDNIDGILDVDGREYHVEIIIVLVDGVIRSEEIRVK : what is it?
[out] 1.87

----------
Assay: protease stability score; higher = more stable; yeast display proteolysis, trypsin and chymotrypsin
Result type: protease stability score
Note: the reply should be a number with no unit written.

Monomer sequence: SEDEEWLHMAFELFAEAMRTGDEETLREYLDPRVRLVVGDKNLHGMEIVMRHFLEWRVRDVKIERIRVINGQLHIDGRLRVEFNGQEKNVDLTLILDKYNGRWRNRTIELR
Result type: protease stability score
Measured: 1.69

[in] Reported protease stability score for DDLEHSSETFEKLWLESVFTGDWRSLLEMLDPHARLVINGRDFIGRELVKETLKEFLDRVPNMTLKLEDREVHIQGDKARIELHTRLEVGDKTVDTRIELIVNKIDGRWLLESQIIRIH : what is it?
[out] 1.08

[in] Reported protease stability score for SEDESAARHVIERMSHNLMTGDEEDLSDQFDPHVRVDINGVEIIGREELLRWLREWLRHAGVSKFNVHIIPREIRLIGDFMEINGELRMNYNGKEERTETRIIVFKFNGKWSIERMRIH : what is it?
[out] 1.72

----------
Assay: protease stability score; higher = more stable; yeast display proteolysis, trypsin and chymotrypsin;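 further: relative to predicted unfolded state with 0 unfolded-like and 1 meaning tenfold more protease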
Result type: protease stability score

Recorded protease stability score, per entry:
Monomer sequence: SEIREETQRVIEEFLRNHKTGDESLFHELADPNARLHFHQGDKRLDFIGREHVLEFWSRVSKELGVDHVELKDHKLQGDKMILHIESEVNGRRMIIIDISDKIDGRWVLHTLHIHVE
Result type: protease stability score
Measured: 0.466

Monomer sequence: SEEHEVAKDAFDVTSHSWKTGDEELFRKLLDPNARFEIDGRDLHGRELVIKFIIEIRWEHTHVEEINVQGDKIIIKSRMEIHYNGVHINITVIVHVRKVNGRWITTHYIFI
Result type: protease stability score
Measured: 1.67

Now for a further sequence.
[in] Reported protease stability score for SEDEEIFRIALHILIYTMKTGDEKMLEENFDPNTKIRVGDKEFVGREELRHWFEHLRPKDFKLRDISTQGEKIRIIGHSIGEVDGREVRYDVEMDLHKVDGRWRMTHERIH : what is it?
[out] 1.16

----------
Assay: protease stability score; higher = more stable; yeast display proteolysis, trypsin and chymotrypsin;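 further: relative to predicted unfolded state with 0 unfolded-like and 1 meaning tenfold more protease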
Result type: protease stability score
Note: the reply should be a number with no unit written.

Monomer sequence: TDEDEAAELIIRLLEELHHTGDEDKLRDLMDPHVRMDIDGKDFHGRETYLEHLHHRLVNWGVDRIKVEIRLKHSEIQGEKLILETDWIVIFDGVRYEMKVRLILIKVNGRWVLKSSHFK
Result type: protease stability score
Measured: 1.32
--
Monomer sequence: SEDHEMVKKLIHDLMRARSTGDEEEFYKLLDPHVRSDINGQETHGREEFVHWFIRHHHEFGFDHVERVHLHHIELIGDKIHVDLIVHITVGEYTIVTHEHLVIWKIDGRWVLRSMDLH
Result type: protease stability score
Measured: 1.43
--
Monomer sequence: SEDREEYHELLKRMIHALMTGDWRDFEKLFDPNARLEVNGQIFHGREDVVKWLRDVLKRYDHIEHFRIRTEEYQGDKIIMDGELHKVINGQHIVTRVRIEVWVVDGRLKRRSEREE
Result type: protease stability score
Measured: 1.51
--
Monomer sequence: EEDDEILEKAIRLHEHMLRTGDPREFWELADPHYKLNIGDKHIHGRETLLRHTLHKIEEYGFKHSRFVPKDWELQGDKIHLRGELILHFNGREHRYDYHIEAIKVNGQWVLHRIDIQ
Result type: protease stability score
Measured: 1.23
--
Monomer sequence: DEEEEIARRIFKIFVHNVLTGDEDSLRKMIDPNTRLHVDGQELHGREQALTFLHEMRIDHMELRELRVIDGRIISHIRVDGEINGRRRDIQTEIILYKVDGRWVIRQMRFQ
Result type: protease stability score
Measured: 2.39

Now for a further sequence.
[in] Reported protease stability score for DEDREEAIKTVEETVELIATGDFEKFEELVDPNVRIDVNGVDVIGREDWRRRVEEIRISMRDSDIKRVRSVNGVMHVDGRIELEVHVNGKTKNVNLRTHWYIVKINGRWLIHSVHFV : what is it?
[out] 1.99

----------
Assay: protease stability score; higher = more stable; yeast display proteolysis, trypsin and chymotrypsin;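 further: relative to predicted unfolded state with 0 unfolded-like and 1 meaning tenfold more protease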
Please note: Condition met applies when protease stability score is 1 or greater, and Condition not met applies otherwise.

Monomer sequence: NEEEKRMVEEHEKFWNFVRTGDEDTVRDLIDPHARVIQGNKILHGWEEAVRWMKEIRIHDIRIHSSHEVDGRVTITGDMDFEFNGKRHILEVRIFLLKIDGRWIHTFIQID
Category label: Condition met

[in] Hi, just wondering whether SEQEESRRWWLEELLTFLVTGDENRLKELLDPDVRVVVNGKHLHGMEAFEEYLRQIDHVDSHKVTDVKVQGNKIIVHTRAKINVDGRHVETELIFIVHKIDGKWKLHSFESR shows protease stability score of 1 or higher.
[out] Condition met

[in] Hi, just wondering whether SEEVEEAVTKMRHIWEHFLTGDEDTLKELVDPTVRLEQGDKEYHGRDFYIKYSEHIRRRFKNLKIIERDMKFTVYNGKAQMQFDGELRVGDKSTEVVIFLHMRKIDGRWFIEAERIEIR shows protease stability score of 1 or higher.
[out] Condition met

[in] Hi, just wondering whether REDEEHTKELLDAWQEAVETGDEDFILELFDPHVRSQVGDKERHGRHSFLELLRRLLEELGFDHVQFHITHREIQGDKITVETRLIFEYGDKRLEVQVEVEVKKINGRWYIHSVRWK shows protease stability score of 1 or higher.
[out] Condition met

[in] Hi, just wondering whether DEEEEELRELARISLELWITGDEDHLRHLMDPRTLLIVDGQEVHGREEAIKWVAFHLLKIKGLTLELKDFDVINGRLHLHVTRRVNGVRRRLRIHIEIIDGRIKTIRITID shows protease stability score of 1 or higher.
[out] Condition met

[in] Hi, just wondering whether SEDEEAAKRLTDLLIHNWETGNEDELHRLIDPNMREDVNGKEFHGWSYMVHFLRRIDHVFSHITIHDIKSVGDYVYIDGTVDEIFHIGDSKIRINIRVTIIILKINGRWIMTHVHVK shows protease stability score of 1 or higher.
[out] Condition met

----------
Below is a list of entries, each paired with its recorded protease stability score value.
Assay: protease stability score; higher = more stable; yeast display proteolysis, trypsin and chymotrypsin;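 further: relative to predicted unfolded state with 0 unfolded-like and 1 meaning tenfold more protease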
Note: the reply should be a number with no unit written.

[in] Reported protease stability score for DEDDERSRLFLEEMMRTLLTGDERKSHELADPRVRINVNGRHIHGRELWNRFVHEARIRITHHRIHSRDIYNGRIELDVELRGDIHIGDKDIHLDTRIILFVLKVNGRWHLEIMEIV : what is it?
[out] 1.25

[in] Reported protease stability score for SEDEEEKHKFAEIFWHAHLTGDFDTLKRLVDPNVRIRIGDKDLHGREHLLEELRKIKNLTIEERHVDIQGEWMRMEVVHYVNGVHIDTTIHIDVVNGRIRRIVFNIV : what is it?
[out] 2.47

[in] Reported protease stability score for DEETKFLLDIFRLVLELFMTGDEDTFSRLFDPNVRNEVNGVEAIGWHQVRELIKEILKEIRIEHIHIHDVRAVGDKVHADTRTDGIINGKRQRRETHVHLETVNGRLKSIWLQIE : what is it?
[out] 1.13

[in] Reported protease stability score for DEKEELTRKLLELLLLAWSTGDEEVLMMLADPDVRITQGDKITHGRDELRREIEEIWRKFGADHIEVEPEDSRVQGDKVNNRTTLWLRINGRTIDFNVHVIIVIVNGVIHSMRFEIR : what is it?
[out] 2.35

[in] Reported protease stability score for NDIEQIVREVLELIYHAIATGDWEHIYKNADPNVKYEQGDKEFHGREILSEMIVHIRLRDLELNRLHIVGDKVHIHGHFHMDINGRERLVKTEYIIRKVDGQWRLESLIIR : what is it?
[out] 1.23

[in] Reported protease stability score for SDEDEEMRELMERIHHAIKTGDEDLLHHMFDPNARVDIDGQIWHGREWEHFFLRKFKGLRIEIKRVHVQGDKIHFRGLDEINGVKFDSHLIIIIVNGKTHAIEIDHR : what is it?
[out] 1.53
